assay: logP by HPLC on reversed-phase column (C 18), EEC Directive 79/B31 Annex V.A8, methods A and B; assay type: physicochemical; conditions: reversed-phase HPLC column (C 18), HPLC reversed-phase C 18, method B: 40° C., 0.1% aqueous formic acid and acetonitrile, linear gradient 10% to 90% acetonitrile
MEASUREMENT_TYPE: chromatographic logP

> print(dat)
                                   compound      measurement.type  measured
1  CCCOc1nn(C)cc1C(=O)N(C1CC1)S(=O)(=O)c1ccc(Oc2ccc(OC)cc2)cc1Br  chromatographic logP         4
2  CCc1nn(C)c(F)c1C(=O)N(C1CC1)S(=O)(=O)c1ccccc1C(F)(F)F  chromatographic logP       2.9
3  CC(F)c1nn(C)cc1C(=O)N(C1CC1)S(=O)(=O)c1ccc(Oc2ccccc2)cc1 (stereo not shown)  chromatographic logP       3.5
4  COc1nn(C)c(O)c1C(=O)N(C1CC1)S(=O)(=O)c1cccc(O)c1O  chromatographic logP       3.2

----------
test: logP by HPLC on reversed-phase column (C 18), EEC Directive 79/B31 Annex V.A8, methods A and B; type: physicochemical; details: reversed-phase HPLC column (C 18), LogP method A: HPLC reversed-phase C 18, 43° C., 0.1% aqueous phosphoric acid / acetonitrile, linear gradient 10% to 90% acetonitrile
MEASUREMENT_TYPE: chromatographic logP

> print(dat)
                                   compound      measurement.type  measured
1  Cc1c(C(=O)N(C2CC2)S(=O)(=O)c2ccc(O)c(C(F)(F)F)c2)sc(=O)n1Cc1ccccc1 [Compound 625]  chromatographic logP      3.01
2  Cc1n[nH]c(C)c1C(=O)N(C1CC1)S(=O)(=O)c1ccc(O)c(C(F)(F)F)c1 [Compound 408]  chromatographic logP         3
3  O=C(c1cccnc1)N(C1CC1)S(=O)(=O)c1ccc(O)c(C(F)(F)F)c1 [Compound 638]  chromatographic logP       3.1
4  COCCn1c(C)c(C(=O)N(C2CC2)S(=O)(=O)c2cccc(O)c2)sc1=O [Compound 609]  chromatographic logP      2.01

----------
assay: logP by HPLC on reversed-phase column (C 18), EEC Directive 79/B31 Annex V.A8, methods A and B; type: physicochemical; conditions: reversed-phase HPLC column (C 18), LogP method A: HPLC reversed-phase C 18, 43° C., 0.1% aqueous phosphoric acid / acetonitrile, linear gradient 10% to 90% acetonitrile
Reported chromatographic logP by item:
MEASUREMENT_TYPE: chromatographic logP

> print(dat)
                    structure.smiles.string  measured
1  CCc1onc(C(C)C)c1C(=O)N(C1CC1)S(=O)(=O)c1ccc(C(F)(F)F)cc1      4.37
2  CC1=C(C(=O)N(C2CC2)S(=O)(=O)c2ccccc2O)OCCS1      2.78
3  CCc1c(C(=O)N(C2CC2)S(=O)(=O)c2ccc(C(F)(F)F)cc2)sc(=O)n1C1CC1      2.01
4  Cc1nn(C)c(C)c1C(=O)N(C1CC1)S(=O)(=O)c1ccc(O)c(C(F)(F)F)c1      3.37

----------
experiment: logP by HPLC on reversed-phase column (C 18), EEC Directive 79/B31 Annex V.A8, methods A and B; type: physicochemical; conditions: reversed-phase HPLC column (C 18), HPLC reversed-phase C 18, method B: 40° C., 0.1% aqueous formic acid and acetonitrile, linear gradient 10% to 90% acetonitrile
Attribute: chromatographic logP
MEASUREMENT_TYPE: chromatographic logP

> print(dat)
                    structure.smiles.string  measured
1  Cn1nc(C(F)F)c(C(=O)N(C2CC2)S(=O)(=O)c2ccc(Oc3ccccc3)cc2)c1F       3.8
2  CCCOc1nn(C)cc1C(=O)N(C1CC1)S(=O)(=O)c1ccc(Oc2cccc(Br)c2)cc1Br       4.6
3  CCCOc1nn(C)cc1C(=O)N(C1CC1)S(=O)(=O)c1ccc(Oc2ccc(Br)cc2)cc1Br       4.6
4  Cn1nc(C(F)(F)F)c(C(=O)N(C2CC2)S(=O)(=O)c2ccc(Oc3ccccc3)cc2)c1F       3.9
